Assay: Half life determined from epimerization data at 25 degree C in Tween 20 (81 mM)
Details: Tween 20 solution (81 mM)
experimental endpoint: half-life
Please append the unit to your numeric answer.

### Prompt Report half-life for CC(C)C(NC(=O)[C@@H]1CCCN1C(=O)[C@@H](NC(=O)c1ccc(C(=O)N2CCOCC2)cc1)C(C)C)C(=O)C(F)(F)C(F)(F)F (stereo partly specified)
### Response 1.17 h

----------
Test system: Cricetinae gen. sp.
Assay: In vivo inhibitory activity against HNE-induced pulmonary hemorrhage was determined in hamsters after oral administration of 25 mg/kg
Type: functional
experimental endpoint: inhibition in vivo at 25 mg/kg (%)
// units = %; emit number, no label

Some molecules with recorded inhibition in vivo at 25 mg/kg:
molecule: CC(C)C(NC(=O)[C@@H]1CCCN1C(=O)[C@@H](NC(=O)c1ccc(C(=O)N2CCOCC2)nc1)C(C)C)C(=O)C(F)(F)C(F)(F)F (stereo partly drawn)
assay value: 61
--
molecule: CC(C)C(NC(=O)[C@@H]1CCCN1C(=O)[C@@H](NC(=O)c1ccc(S(=O)(=O)N2CCOCC2)cc1)C(C)C)C(=O)C(F)(F)C(F)(F)F (stereo partly drawn)
assay value: 30

Please look at the following molecule next.
### Prompt Report inhibition in vivo at 25 mg/kg for CC(C)C(NC(=O)[C@@H]1CCCN1C(=O)[C@@H](NC(=O)c1ccc(C(=O)O)cc1)C(C)C)C(=O)C(F)(F)C(F)(F)F (stereo partly drawn)
### Response -3

----------
Target: Neutrophil elastase (Homo sapiens)
Sequence (P08246 whole entry): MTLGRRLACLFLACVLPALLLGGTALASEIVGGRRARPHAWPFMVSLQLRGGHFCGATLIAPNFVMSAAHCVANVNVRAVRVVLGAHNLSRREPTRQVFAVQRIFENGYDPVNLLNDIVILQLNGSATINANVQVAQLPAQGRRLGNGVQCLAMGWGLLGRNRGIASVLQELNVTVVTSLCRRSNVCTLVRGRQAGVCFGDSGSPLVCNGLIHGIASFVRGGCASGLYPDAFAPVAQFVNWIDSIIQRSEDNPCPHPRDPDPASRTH
Experiment: In vitro inhibitory activity against human neutrophil elastase was determined at a dose of 100 mg/kg
Assay type: organism-based
Set-up: dose 100 mg/kg
experimental endpoint: pKi
# pKi = -log10(concentration in molar units)

### Prompt Report pKi for CC(C)C(NC(=O)[C@@H]1CCCN1C(=O)[C@@H](NC(=O)c1ccc(C(=O)NS(=O)(=O)c2ccc(Cl)cc2)cc1)C(C)C)C(=O)C(F)(F)C(F)(F)F (stereo partly specified)
### Response 8.15

----------
Target: Neutrophil elastase (Homo sapiens, UniProt P08246)
Assay: In vitro inhibitory activity against human neutrophil elastase was determined at a dose of 25 mg/kg
Type: organism-based
Set-up: dose 25 mg/kg
experimental endpoint: Ki (nM)
// units = nM; emit number, no label

### Prompt Report Ki for CC(C)C(NC(=O)[C@@H]1CCCN1C(=O)[C@@H](NC(=O)CC(=O)N1CCOCC1)C(C)C)C(=O)C(F)(F)C(F)(F)F (stereo partly specified)
### Response 70

----------
Biological target: Neutrophil elastase (Homo sapiens, UniProt P08246)
Assay: In vitro inhibitory activity against human neutrophil elastase was determined at a dose of 45 mg/kg
Format: organism-based
Set-up: dose 45 mg/kg
experimental endpoint: Ki (nM)
// units = nM; emit number, no label

### Prompt Report Ki for CC(C)[C@H](NC(=O)c1ccco1)C(=O)N1CCC[C@H]1C(=O)N[C@H](C(=O)C(F)(F)C(F)(F)F)C(C)C
### Response 190
